Biological target: Histone deacetylase 3 (Homo sapiens)
Sequence (O15379 whole entry): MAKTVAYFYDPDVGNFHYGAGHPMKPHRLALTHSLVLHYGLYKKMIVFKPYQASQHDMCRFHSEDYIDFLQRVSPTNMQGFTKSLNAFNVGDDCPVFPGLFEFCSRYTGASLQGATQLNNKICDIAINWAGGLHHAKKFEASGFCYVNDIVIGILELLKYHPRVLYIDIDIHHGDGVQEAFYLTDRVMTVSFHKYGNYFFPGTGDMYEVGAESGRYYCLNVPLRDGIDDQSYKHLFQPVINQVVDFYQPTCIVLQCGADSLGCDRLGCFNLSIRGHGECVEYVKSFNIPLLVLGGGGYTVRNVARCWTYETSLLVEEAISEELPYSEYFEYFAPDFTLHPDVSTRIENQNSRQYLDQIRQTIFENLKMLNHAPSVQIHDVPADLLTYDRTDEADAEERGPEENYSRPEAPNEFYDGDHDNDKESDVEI
reported_property: IC50 (nM)

• Cc1nc2c(F)cc(-c3nc(Nc4ccc(CNC(=O)CC(=O)NO)cc4)ncc3F)cc2n1C(C)C = 56

###

Test: Cytotoxicity against African green monkey Vero cells
Conditions: African green monkey (Chlorocebus sabaeus)
reported_property: IC50

* CC1(C)C(=O)N(c2ccc(C#N)c(C(F)(F)F)c2)C(=O)N1CCCCCCc1cn(CCCCCCC(=O)NO)nn1 | > 20 µM

###

Biological target: Histone deacetylase 1 (Homo sapiens, UniProt Q13547)
Sequence (Q13547 whole entry): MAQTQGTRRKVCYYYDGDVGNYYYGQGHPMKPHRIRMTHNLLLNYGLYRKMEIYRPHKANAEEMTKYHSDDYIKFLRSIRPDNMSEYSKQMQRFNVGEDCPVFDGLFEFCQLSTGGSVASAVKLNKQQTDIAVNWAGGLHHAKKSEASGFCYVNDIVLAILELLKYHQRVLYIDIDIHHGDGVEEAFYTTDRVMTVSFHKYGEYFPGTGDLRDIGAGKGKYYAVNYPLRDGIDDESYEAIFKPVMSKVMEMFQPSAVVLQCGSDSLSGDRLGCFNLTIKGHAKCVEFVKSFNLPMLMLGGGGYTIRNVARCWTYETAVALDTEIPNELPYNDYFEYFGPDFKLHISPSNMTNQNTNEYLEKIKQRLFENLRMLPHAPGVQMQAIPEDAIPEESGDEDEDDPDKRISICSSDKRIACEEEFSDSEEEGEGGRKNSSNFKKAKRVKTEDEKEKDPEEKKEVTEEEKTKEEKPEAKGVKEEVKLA
Assay: Inhibition of HDAC1 (unknown origin)
pIC50: −log10 of the molar value.
pIC50 values by entry
reported_property: pIC50

- CCN1CCN(c2cc(Nc3ncc(C(=O)Nc4ccccc4N)s3)nc(C)n2)CC1: 6.82
- CCN1CCN(c2cc(Nc3ncc(C(=O)Nc4ccc(F)cc4N)s3)nc(C)n2)CC1: 6.09
- CC(C)=CCC/C(C)=C\CC/C(C)=C\CSc1ccccc1C(=O)NCCCCC(=O)NO: 9.24
- Cn1c(CCCCCCC(=O)NO)nc2cc(N(CCCl)CCCl)ccc21: 8.00
- C#Cc1cccc(Nc2ncnc3ccc(S(=O)(=O)n4ccc(/C=C/C(=O)Nc5ccccc5N)c4)cc23)c1: 7.39
- Cc1nc2c(F)cc(-c3nc(Nc4ccc(CNC(=O)CC(=O)NO)cc4)ncc3F)cc2n1C(C)C: 7.59

###

pIC50 values by entry
Molecular target: Epidermal growth factor receptor (Homo sapiens)
Test: Inhibition of EGFR (unknown origin)
pIC50: −log10 of the molar value.
reported_property: pIC50

- O=C(CCCCCCC(=O)Nc1ccccc1)NO: 7.92
- C#Cc1cccc(Nc2ncnc3ccc(S(=O)(=O)n4ccc(/C=C/C(=O)Nc5ccccc5N)c4)cc23)c1: 7.11

###

Target: Epidermal growth factor receptor (Homo sapiens, UniProt P00533)
Sequence (P00533 whole entry): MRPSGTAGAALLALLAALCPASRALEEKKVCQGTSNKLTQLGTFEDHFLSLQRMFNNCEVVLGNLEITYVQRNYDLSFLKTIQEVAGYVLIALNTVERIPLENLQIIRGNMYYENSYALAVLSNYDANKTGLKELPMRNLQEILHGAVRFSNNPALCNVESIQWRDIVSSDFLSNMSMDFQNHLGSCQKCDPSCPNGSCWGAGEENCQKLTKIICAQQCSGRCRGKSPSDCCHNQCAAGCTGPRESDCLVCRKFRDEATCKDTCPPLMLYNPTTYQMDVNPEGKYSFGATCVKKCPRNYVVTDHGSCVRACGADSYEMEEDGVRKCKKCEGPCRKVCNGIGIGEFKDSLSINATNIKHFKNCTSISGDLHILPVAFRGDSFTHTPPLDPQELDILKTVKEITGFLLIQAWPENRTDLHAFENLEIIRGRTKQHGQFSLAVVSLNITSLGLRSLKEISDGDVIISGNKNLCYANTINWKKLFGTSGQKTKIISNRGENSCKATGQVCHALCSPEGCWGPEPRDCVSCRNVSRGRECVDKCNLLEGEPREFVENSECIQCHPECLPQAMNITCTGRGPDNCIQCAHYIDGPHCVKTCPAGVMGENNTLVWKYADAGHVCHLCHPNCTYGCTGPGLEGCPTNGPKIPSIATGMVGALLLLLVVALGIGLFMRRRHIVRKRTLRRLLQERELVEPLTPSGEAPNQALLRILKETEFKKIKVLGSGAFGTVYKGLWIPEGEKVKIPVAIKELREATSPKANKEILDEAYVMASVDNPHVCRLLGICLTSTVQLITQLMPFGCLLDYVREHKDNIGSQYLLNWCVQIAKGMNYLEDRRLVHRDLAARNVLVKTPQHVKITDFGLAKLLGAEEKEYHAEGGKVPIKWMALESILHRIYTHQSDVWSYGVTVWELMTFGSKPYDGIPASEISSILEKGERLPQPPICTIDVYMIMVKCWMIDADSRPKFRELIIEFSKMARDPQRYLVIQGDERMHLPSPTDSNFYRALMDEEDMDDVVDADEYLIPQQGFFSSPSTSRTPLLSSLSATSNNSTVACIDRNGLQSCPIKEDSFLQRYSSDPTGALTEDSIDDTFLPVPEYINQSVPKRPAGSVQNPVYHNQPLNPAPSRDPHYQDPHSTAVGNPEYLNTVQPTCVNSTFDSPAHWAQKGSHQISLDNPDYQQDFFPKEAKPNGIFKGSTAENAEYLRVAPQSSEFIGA
Assay: Inhibition of EGFR wildtype (unknown origin) incubated for 40 mins in presence of ATP
IC50 values by entry
reported_property: IC50 (µM)

• COc1cc(NC(=O)CCCCCCC(=O)NO)ccc1Nc1nccc(-c2cn(C)c3ccccc23)n1 = 5.9
• Cn1cc(-c2ccnc(Nc3ccc(NC(=O)CCCCCCC(=O)NO)cc3)n2)c2ccccc21 = 3.2

###

Tested on: MCF7
Test: Cytotoxicity against human MCF7 cells
Format: functional, cell-based
IC50 values by entry
reported_property: IC50

- COc1cc2/c(=N/c3ccc(Br)cc3F)nc[nH]c2cc1OCC1CCN(C)CC1: 18.5 µM
- COc1cc2ncnc(Nc3ccc(Cl)cc3Cl)c2cc1OCCCCCCC(=O)NO: 12 µM
- CC1(C)C(=O)N(c2ccc(C#N)c(C(F)(F)F)c2)C(=O)N1CCCCCCc1cn(CCCCCCC(=O)NO)nn1: 14.6 µM
- COc1cc2ncnc(Nc3ccc(Br)cc3)c2cc1OCCCCCCC(=O)NO: 0.88 µM

###

pIC50 values by entry
Test system: K562
Experiment: Cytotoxicity against human K562 cells
pIC50: −log10 of the molar value.
reported_property: pIC50

- CCN1CCN(c2cc(Nc3ncc(C(=O)Nc4ccccc4N)s3)nc(C)n2)CC1: 5.59
- Cc1nc(Nc2ncc(C(=O)Nc3c(C)cccc3Cl)s2)cc(N2CCN(CCO)CC2)n1 [DASATINIB]: 5.13
- Nc1ccccc1NC(=O)c1ccc(CNC(=O)OCc2cccnc2)cc1 [ENTINOSTAT]: 4.67
- CCN1CCN(c2cc(Nc3ncc(C(=O)Nc4ccc(F)cc4N)s3)nc(C)n2)CC1: 5.58

###

Test system: Epidermal growth factor receptor (Homo sapiens), P00533 [UNDEFINED MUTATION]
Sequence (P00533 whole entry, looked up, stated change not applied): as the sequence (P00533 whole entry) above
Assay: Inhibition of EGFR T790M (unknown origin) at 1 uM incubated for 40 mins in presence of ATP relative to control
reported_property: inhibition (%)

• Cn1cc(-c2ccnc(Nc3ccc(NC(=O)CCCCCCC(=O)NO)cc3)n2)c2ccccc21 = 44
• Cn1cc(-c2ccnc(Nc3ccc(NC(=O)CCCCCC(=O)NO)cc3)n2)c2ccccc21 = 35
• COc1cc(NC(=O)CCCCCC(=O)NO)ccc1Nc1nccc(-c2cn(C)c3ccccc23)n1 = 13
• COc1cc(NC(=O)CCCCCCC(=O)NO)ccc1Nc1nccc(-c2cn(C)c3ccccc23)n1 = 15

###

Molecular target: Histone-lysine N-methyltransferase EZH2 (Homo sapiens)
Sequence (Q15910 whole entry): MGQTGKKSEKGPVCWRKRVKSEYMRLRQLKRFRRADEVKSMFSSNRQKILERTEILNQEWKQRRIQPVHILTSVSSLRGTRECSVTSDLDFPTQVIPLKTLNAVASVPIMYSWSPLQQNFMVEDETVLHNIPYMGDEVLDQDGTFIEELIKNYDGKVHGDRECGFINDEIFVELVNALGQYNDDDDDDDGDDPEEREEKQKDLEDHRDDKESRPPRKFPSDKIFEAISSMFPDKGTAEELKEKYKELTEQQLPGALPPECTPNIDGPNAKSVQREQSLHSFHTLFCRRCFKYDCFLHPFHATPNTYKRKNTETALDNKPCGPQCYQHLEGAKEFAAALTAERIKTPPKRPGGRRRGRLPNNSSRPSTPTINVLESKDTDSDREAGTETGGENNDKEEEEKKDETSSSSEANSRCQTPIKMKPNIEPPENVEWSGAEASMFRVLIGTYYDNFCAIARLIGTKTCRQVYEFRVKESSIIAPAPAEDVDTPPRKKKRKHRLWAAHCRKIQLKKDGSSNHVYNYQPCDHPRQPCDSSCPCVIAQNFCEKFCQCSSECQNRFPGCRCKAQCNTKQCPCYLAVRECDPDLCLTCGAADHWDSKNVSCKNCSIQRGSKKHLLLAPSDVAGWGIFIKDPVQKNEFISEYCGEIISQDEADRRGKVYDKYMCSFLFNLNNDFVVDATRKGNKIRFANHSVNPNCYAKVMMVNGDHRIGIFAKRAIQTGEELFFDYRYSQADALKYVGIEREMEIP
reported_property: IC50

* Cc1cc(C)c(CNC(=O)c2cc(C)n(-c3ccccc3)c2C)c(=O)[nH]1 | 15.4 µM
